Reported Relative % of Control by item:
Target: HIV-1LAI envelope gp120 (Human immunodeficiency virus type 1 group M subtype B, UniProt P03377)
Assay type: binding
Details: CCR5 (1-18) alanine variants; mean of two syntheses and binding experiments ± average deviation; wild-type = 100%
propertyLabel: Relative % of Control (%)

[[record]]
residuecodes = "MDYQVSSPIYDINYYASE"
experimentalvalue = 78

[[record]]
residuecodes = "MDYQVSSPIYDIAYYTSE"
experimentalvalue = 253

[[record]]
residuecodes = "MDYQVSSAIYDINYYTSE"
experimentalvalue = 157

[[record]]
residuecodes = "MDYQVSSPIYDINYYTSA [CCR5 (1-18) variant E18A]"
experimentalvalue = 4

[[record]]
residuecodes = "MDYQVSSPIYDINAYTSE [CCR5 (1-18) variant Y14A]"
experimentalvalue = 15

[[record]]
residuecodes = "MDYQVSAPIYDINYYTSE"
experimentalvalue = 56

[[record]]
residuecodes = "MDYQVSSPIYAINYYTSE [CCR5 (1-18) variant D11A]"
experimentalvalue = 63

[[record]]
residuecodes = "ADYQVSSPIYDINYYTSE [CCR5 (1-18) variant M1A]"
experimentalvalue = 167

[[record]]
residuecodes = "MDYQVSSPIYDINYYTSE"
experimentalvalue = 100

[[record]]
residuecodes = "MDYQVSSPIYDINYYTAE"
experimentalvalue = 64

[[record]]
residuecodes = "MDAQVSSPIYDINYYTSE [CCR5 (1-18) variant Y3A]"
experimentalvalue = 51

[[record]]
residuecodes = "MDYQVASPIYDINYYTSE"
experimentalvalue = 124

[[record]]
residuecodes = "MDYQASSPIYDINYYTSE [CCR5 (1-18) variant V5A]"
experimentalvalue = 82

